test system: MDA-MB-435 melanoma; experiment: NCI-60 one-dose screen, 48 h; settings: 10 µM unless noted
Compounds without any hit were thinned out: in the full panel of roughly 83,000, 20% have a hit. Active and inactive are the calls of the source. The calls were made as follows: active = growth percent below 10; inactive = the rest.
# output must be one of yes (1) (active), no (0) (inactive)

1. CSc1cccc(NC(=O)Nc2nc3c(C)cccc3s2)c1; no (0)
2. CCC1=C[C@H]2CN(CCc3c([nH]c4ccccc34)[C@@](C(=O)OC)(c3cc4c(cc3OC)N(C)[C@H]3[C@@](O)(C(=O)OC)[C@H](OC(C)=O)[C@]5(CC)[C@@H]6C[C@@H]6CN6CC[C@]43[C@@H]65)C2)C1; yes (1)
3. O=C(Nc1cccc(-c2cccc(F)c2)c1)C1CCN(Cc2cccc3cccnc23)CC1; no (0)

Q) // outcome(item) with item = O=CN1N=C(c2ccc3c(c2)OCO3)CC1c1cccc(Nc2ccnc3cc(C(F)(F)F)ccc23)c1 (centres undefined)
A) no (0)

Where do the numbers come from? From PubChem BioAssay (NCI).
